Entry source: PubChem BioAssay

assay_summary: S. cerevisiae growth modulation with rapamycin, primary screen, strain BY4716, OD600, 96 h (AID 1091); further: test concentration not given here
assay_conditions: called active from +8 up or from −8 down
Activity calls are given as the source filed them.
Outcomes: TRUE for active, FALSE for inactive

compound: CCCCN1CC=CC23O[C@@H]4C=CCOC(=O)[C@@H]4[C@H]2C(=O)N(CCCO)[C@@H]3C1=O (stereo partly drawn)
classification: FALSE
--
compound: C=CCN1C(=O)[C@@]2(O[C@@H](CCO)[C@H]([Si](C)(C)c3ccc(OC)cc3)[C@H]2C)c2cc(N3C(=O)c4ccccc4Oc4ccccc43)ccc21
classification: TRUE
--
compound: O=C(O)[C@]1(Cc2ccccc2)N=C(c2ccc(OCCCO)cc2)O[C@@H]1c1ccccc1
classification: FALSE
--
compound: O=C1OCCC=C[C@H]2OC34C=CCN(c5ccc(Cl)cc5)C(=O)[C@H]3N(CCCCCO)C(=O)[C@@H]4C12 (stereo partly drawn)
classification: FALSE
--
compound: CCOC(=O)C[C@H]1[C@H](OC(=O)Cc2ccc3c(c2)OCO3)[C@@H](NC(=O)C2CCCCC2)c2cc(OCCCO)ccc2N1C(=O)c1ccc2ccccc2n1
classification: FALSE
--
compound: O=C(O)[C@H](Cc1ccccc1)n1cc(-c2ccccn2)nn1
classification: FALSE
--
compound: CCCC[C@@H]1C[C@H]1[C@@H](NC(=O)c1cccnc1)c1ccc(-c2ccccc2)cc1
classification: FALSE
--
compound: O=C1O[C@@H](c2ccccc2)[C@@H](c2ccccc2)N2[C@@H](c3ccccc3OCCO)[C@]3(C(=O)Nc4ccccc43)[C@@H](C(=O)NC[C@H](O)c3ccccc3)[C@H]12
classification: FALSE

* * *

assay_target: Carbonic anhydrase 2 (Homo sapiens) (UniProt P00918)
assay_summary: CAII small-molecule binders, profiling panel, biochemical, small-molecule microarray, Alexa647-labelled CAII (AID 1122)
assay_conditions: CAII-A647 binding fluorescence, higher = more signal
Each entry below carries its reported composite z-score.

compound: C=CCOC(=O)[C@@H]1[C@H]2C(=O)O[C@H](c3ccccc3)[C@H](c3ccccc3)N2[C@H](c2ccc(OCCOC(=O)[C@H]3C[C@H]4C(=O)N[C@@H](CCCCNC(C)=O)C(=O)N4[C@H]3c3cccc(OCCO)c3)cc2)[C@@]12C(=O)Nc1ccc(I)cc12
composite z-score: 0.336
--
compound: CN(C)C(=O)[C@]1(CCC(=O)OC(C)(C)C)N=C(c2ccc(OCCCO)cc2)O[C@@H]1c1ccccc1
composite z-score: 0.469
--
compound: CC(C)(C)OC(=O)CC[C@]1(C(=O)O)N=C(c2ccc(OCCCO)cc2)O[C@H]1c1ccccc1
composite z-score: 0.808
--
compound: COCCOC(=O)N1C(=O)[C@@]2(c3cc(C#CC4=CCCCC4)ccc31)[C@H](c1ccccc1OCCO)N1[C@H](c3ccccc3)[C@H](c3ccccc3)OC(=O)[C@H]1[C@@H]2C(=O)N1CCc2cc(OC)c(OC)cc2C1
composite z-score: 0.426
--
compound: COc1ccc([Si](C)(C)[C@@H]2[C@@H](CCO)O[C@]3(C(=O)N(Cc4cccc(N5C(=O)c6ccccc6Oc6ccccc65)c4)c4ccccc43)[C@H]2C)cc1
composite z-score: 0.411
--
compound: COc1ccc(NN2C(C(O)c3ccccn3)C=CC3C(=O)N(C4CCCCC4)C(=O)C32)cc1 (stereo unspecified)
composite z-score: 0.7
--
compound: CCOC(=CC(=O)OC)CC(O)c1cccc(Cl)c1 (stereo unspecified)
composite z-score: 0.606
--
compound: COc1cc(CO)cc(I)c1O[C@H]1C=C(C(=O)NCCO)C[C@@H](NCc2ccccc2F)[C@@H]1O
composite z-score: 0.218
--
compound: COCCCNC(=O)[C@]1(Cc2ccccc2CN=[N+]=[N-])N=C(c2ccc(OCCCO)cc2)O[C@@H]1c1ccccc1
composite z-score: 0.548
--
compound: C=CCOC(=O)[C@H]1[C@@H]2C(=O)O[C@@H](c3ccccc3)[C@@H](c3ccccc3)N2[C@@H](c2ccc(OCCOC(=O)[C@H]3C[C@H]4C(=O)N[C@@H](Cc5ccccc5)C(=O)N4[C@H]3c3ccc(O)cc3)cc2)[C@]12C(=O)Nc1ccc(I)cc12
composite z-score: 0.28
--
compound: C=CCNC(=O)[C@H]1[C@@H]2C(=O)O[C@@H](c3ccccc3)[C@@H](c3ccccc3)N2[C@@H](c2ccccc2OCCO)[C@]12C(=O)N(C(=O)OCCOC)c1ccc(C#CC3=CCCCC3)cc12
composite z-score: 0.55
--
compound: COc1ccc(C#Cc2ccc3c(c2)[C@]2(C(=O)N3)[C@H](C(=O)N3CCc4cc(OC)c(OC)cc4C3)[C@H]3C(=O)O[C@H](c4ccccc4)[C@H](c4ccccc4)N3[C@@H]2c2ccc(O)cc2)cc1
composite z-score: 0.432
--
compound: CC=CC(O)C1C=CC2C(=O)N(c3ccccc3)C(=O)C2N1Nc1ccc([N+](=O)[O-])cc1 (stereo unspecified)
composite z-score: 0.661
--
compound: C=CCC(OC(C)=O)[C@@H]1[C@@H](N(Cc2cc3ccccc3o2)C(=O)c2ccc(C)cc2)c2cc(OCCCO)ccc2N1C(=O)Cc1ccc2ccccc2c1 (stereo partly specified)
composite z-score: -0.138
--
compound: [N-]=[N+]=NCc1ccccc1C[C@@]1(C(N)=O)N=C(c2ccc(OCCCO)cc2)O[C@@H]1c1ccccc1CN=[N+]=[N-]
composite z-score: 0.549
--
compound: CC(C)CNC(=O)[C@@]1(c2ccc([N+](=O)[O-])cc2)CC(=O)N(C2CCCCC2)[C@@H]1c1ccc(CO)cc1I
composite z-score: 0.469
--
compound: COCCOC(=O)N1C(=O)[C@@]2(c3cc(C#CCC(C(=O)OC)C(=O)OC)ccc31)[C@H](c1ccc(OCCO)cc1)N1[C@H](c3ccccc3)[C@H](c3ccccc3)OC(=O)[C@H]1[C@@H]2C(=O)N1CCN(c2ncccn2)CC1
composite z-score: 0.35
--
compound: C=CCOC(=O)[C@H]1[C@@H]2C(=O)O[C@@H](c3ccccc3)[C@@H](c3ccccc3)N2[C@@H](c2ccc(OCCOC(=O)[C@H]3C[C@H]4C(=O)N[C@@H](Cc5ccccc5)C(=O)N4[C@H]3c3cccc(OCCO)c3)cc2)[C@]12C(=O)Nc1ccc(I)cc12
composite z-score: 0.487
--
compound: CC(=O)n1cc(C(O)C2C=CC3C(=O)N(c4ccccc4)C(=O)C3N2Nc2ccccc2)c2ccccc21 (stereo unspecified)
composite z-score: 0.788
--
compound: NCCCCCCNC(=O)[C@@H]1C[C@@H]2C(=O)N3CCC[C@H]3C(=O)N2[C@@H]1c1ccc(O)cc1
composite z-score: 0.291
--
compound: O=C(O)[C@]1(Cc2ccccc2)N=C(c2ccc(OCCCO)cc2)O[C@@H]1c1ccccc1
composite z-score: 0.837
--
compound: CC(C)(C)N1CC=CC23O[C@@H]4C=CCOC(=O)[C@@H]4[C@H]2C(=O)N(CCCO)[C@@H]3C1=O (stereo partly specified)
composite z-score: 0.917
--
compound: CN(C)CCCNC(=O)[C@@]1(C)c2ccccc2C(=O)N(Cc2cc(C(F)(F)F)cc(C(F)(F)F)c2)[C@H]1c1ccc(CO)cc1
composite z-score: 0.485
--
compound: CC(=O)n1cc(C(O)C2C=CC3C(=O)N(Cc4ccccc4)C(=O)C3N2n2cnnc2)c2ccccc21 (stereo unspecified)
composite z-score: 0.444
--
compound: O=C1OC[C@@H](c2ccccc2)N2CC(/C=C/c3ccccc3)=CC12 (stereo partly specified)
composite z-score: 0.453
--
compound: [N-]=[N+]=Nc1ccccc1[C@H]1OC(c2ccc(OCCCO)cc2)=N[C@@]1(CCS(=O)(=O)c1ccccc1)C(=O)N1CCCCC1
composite z-score: 0.647
